// data source = ChEMBL document CHEMBL4699495

# assayName: Therapeutic index, ratio of TC50 for human HuH-7-Luc/Neo-ET cells to EC50 for HCV infected in human HuH7-Luc/Neo-ET cells
# Type: toxicity
For each entry below, report its selectivity ratio value.

Sample CCCCCCCCCC(=O)Oc1ccc(COP(=O)(OCc2ccc(OC(=O)CCCCCCCCC)cc2)OP(=O)([O-])O[C@H](C)[C@H]2O[C@@H](n3ccc(=O)[nH]c3=O)[C@](C)(O)[C@@H]2O)cc1.CCCC[N+](CCCC)(CCCC)CCCC — what was its selectivity ratio?
> 38.5

Same read-out for CC(C)OC(=O)[C@H](C)N[P@](=O)(OC[C@H]1O[C@@H](n2ccc(=O)[nH]c2=O)[C@](C)(F)[C@@H]1O)Oc1ccccc1 ?
> 29.2

Same read-out for CC(C)OC(=O)[C@H](C)N[P@@](=O)(Oc1ccccc1)O[C@H](C)[C@H]1O[C@@H](n2ccc(=O)[nH]c2=O)[C@](C)(O)[C@@H]1O ?
> 67.1

Same read-out for CCCCCCCCCC(=O)Oc1ccc(COP(=O)(OCc2ccc(OC(=O)CCCCCCCCC)cc2)OP(=O)([O-])O[C@@H](C)[C@H]2O[C@@H](n3ccc(=O)[nH]c3=O)[C@](C)(O)[C@@H]2O)cc1.CCCC[N+](CCCC)(CCCC)CCCC ?
3.29
